Read-out: Low-density lipoprotein receptor (LDLR), LDLR (gene 3949)
Assay: BSK_CASM3C_LDLR: BioMAP Diversity Plus: CASM3C Assay for Low-density lipoprotein receptor (LDLR) Biomarker Activity (AID 2283045);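 also: LDLR protein level on the cell surface quantified by ELISA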
Details: primary human coronary artery smooth muscle cells; actives raise or lower the signal
Active and inactive are the calls of the source. The calls were made as follows: active = hit-call score of the fitted dose curve at least 0.9, where 1 is the maximum; inactive = score below 0.9.
Your response should consist of one outcome taken from active, inactive

Query string: Which outcome did this test record for the molecule CCCO[Si](OCCC)(OCCC)OCCC ?
Result string: inactive

Query string: Which outcome did this test record for the molecule OCC(F)(OC(F)(F)C(F)(OC(F)(F)C(F)(F)C(F)(F)F)C(F)(F)F)C(F)(F)F (stereo unspecified) ?
Result string: inactive

Query string: Which outcome did this test record for the molecule CCCCCCCC1CCCC1=O (stereo unspecified) ?
Result string: active

Query string: Which outcome did this test record for the molecule CC(C)(CO)CO ?
Result string: inactive

Query string: Which outcome did this test record for the molecule C=C(C)C(=O)OCCC(F)(F)C(F)(F)C(F)(F)C(F)(F)C(F)(F)C(F)(F)C(F)(F)C(F)(F)F ?
Result string: inactive

Query string: Which outcome did this test record for the molecule O=S1(=O)CC(Cl)(Cl)C(Cl)(Cl)C1 ?
Result string: active

Query string: Which outcome did this test record for the molecule c1ccc(Sc2ccccc2)cc1 ?
Result string: inactive

Query string: Which outcome did this test record for the molecule COc1ccccc1NC(=O)CC(C)=O ?
Result string: inactive

Query string: Which outcome did this test record for the molecule CCOC(=O)CCCCCCCCC(=O)OCC ?
Result string: inactive

Query string: Which outcome did this test record for the molecule C=C(C)C(N)=O ?
Result string: inactive

Query string: Which outcome did this test record for the molecule CCCCCCCCCC(=O)OCC ?
Result string: active

Query string: Which outcome did this test record for the molecule CC(C)(C)c1cccc(O)c1 ?
Result string: inactive

Query string: Which outcome did this test record for the molecule CCC(=O)OCC=Cc1ccccc1 ?
Result string: inactive

Query string: Which outcome did this test record for the molecule C=CC(=O)OCC(CO)(COC(=O)C=C)COC(=O)C=C ?
Result string: active

Query string: Which outcome did this test record for the molecule CC(C)CCCC(C)(C)O ?
Result string: inactive

Query string: Which outcome did this test record for the molecule O=C(O)C(F)(F)OC(F)(F)C(F)(F)OC(F)(F)C(F)(F)C(F)(F)C(F)(F)F ?
Result string: inactive

Query string: Which outcome did this test record for the molecule C=C1CC/C=C(\C)CC[C@@H]2[C@@H]1CC2(C)C ?
Result string: inactive

Query string: Which outcome did this test record for the molecule CCn1cc(C(=O)O)c(=O)c2ccc(C)nc21 ?
Result string: inactive

Query string: Which outcome did this test record for the molecule C[C@]12CC[C@@H]3c4ccc(O)cc4CC[C@H]3[C@@H]1CC[C@@H]2O ?
Result string: inactive

Query string: Which outcome did this test record for the molecule Nc1ccc(N)c([N+](=O)[O-])c1 ?
Result string: inactive

Query string: Which outcome did this test record for the molecule COC(=O)c1ccc(C(=O)OC)cc1 ?
Result string: inactive

Query string: Which outcome did this test record for the molecule CC(=O)c1ccc(C)cc1 ?
Result string: inactive

Query string: Which outcome did this test record for the molecule C=C(F)C(=O)OC(C(F)(F)F)C(F)(F)F ?
Result string: inactive

Query string: Which outcome did this test record for the molecule CC1(C)[C@H](C=C(Cl)Cl)[C@H]1C(=O)OCc1cccc(Oc2ccccc2)c1 ?
Result string: inactive

Query string: Which outcome did this test record for the molecule O=S(=O)(O)C(F)(F)C(F)(F)OC(F)(F)C(F)(F)F ?
Result string: inactive

Query string: Which outcome did this test record for the molecule NC(=O)c1c(Cl)cccc1Cl ?
Result string: inactive

* * *

Read-out: Decorin, DCN (gene 1634)
Experiment: BSK_MyoF_Decorin: BioMAP Diversity Plus: MyoF Assay for Decorin Biomarker Activity (AID 2284265)
Conditions: primary human lung fibroblasts
Calls of active or inactive are those of the source. How the source made its calls: active means hit-call score of the fitted dose curve at least 0.9, where 1 is the maximum; inactive means score below 0.9.
Your response should consist of one outcome taken from active, inactive

Query string: Which outcome did this test record for the compound C=CC(=O)OCC(CO)(COC(=O)C=C)COC(=O)C=C ?
Result string: active

Query string: Which outcome did this test record for the compound OCC(F)(OC(F)(F)C(F)(OC(F)(F)C(F)(F)C(F)(F)F)C(F)(F)F)C(F)(F)F (stereo unspecified) ?
Result string: inactive

Query string: Which outcome did this test record for the compound CC(=O)OC(C)(C)C1CC=C(C)CC1 (stereo unspecified) ?
Result string: inactive

Query string: Which outcome did this test record for the compound CC(=O)OCC=C(C)CCC=C(C)CCC=C(C)C ?
Result string: inactive

Query string: Which outcome did this test record for the compound c1ccc(Sc2ccccc2)cc1 ?
Result string: active

Query string: Which outcome did this test record for the compound O=S(=O)(O)C(F)(F)C(F)(F)OC(F)(F)C(F)(F)F ?
Result string: inactive

* * *

Experiment: ATG_AP_2_CIS: Attagene CIS-FACTORIAL HepG2 Assay for human Activator Protein 2 (AP-2) (AID 2282932)
Conditions: HepG2 AP-2 cis-reporter, Attagene transcription factor profiling; actives raise or lower the signal
Calls of active or inactive are those of the source. How the source made its calls: active means hit-call score of the fitted dose curve at least 0.9, where 1 is the maximum; inactive means score below 0.9.
Measure Name: outcome

Example entries begin here.
CCCCC(CC)COCCO (configuration not stated) ... inactive
OCCCO ... inactive
CC(C)(C)c1cc(CCC(=O)OCCSCCOC(=O)CCc2cc(C(C)(C)C)c(O)c(C(C)(C)C)c2)cc(C(C)(C)C)c1O ... inactive
CCCCCCCCCCCCN1CCOCC1 ... inactive
CCC(CC)CO ... inactive

// recorded outcome for OCC=Cc1ccccc1 : inactive

// recorded outcome for CCCCC/C=C\C=C\C(=O)OCC : inactive

// recorded outcome for CC(C)(O)C(=O)c1ccc(OCCO)cc1 : inactive

// recorded outcome for O=C(O)c1cccc(Cl)n1 : inactive

* * *

Read-out: CD38, CD38 (gene 952)
Assay: BSK_SAg_CD38: BioMAP Diversity Plus: SAg Assay for CD38 Biomarker Activity (AID 2283087)
Conditions: primary human HUVEC with PBMC; actives raise or lower the signal
Calls of active or inactive are those of the source. How the source made its calls: active means hit-call score of the fitted dose curve at least 0.9, where 1 is the maximum; inactive means score below 0.9.
Measure Name: AC50

Example entries begin here.
CC(=O)OC(C)(C)C1CC=C(C)CC1 (stereo not drawn) ... inactive
CCC(=O)OCC=Cc1ccccc1 ... inactive
C=CC(=O)OCC(CO)(COC(=O)C=C)COC(=O)C=C ... 0.34 µM (active)
CC(=O)CCC=C(C)CCC=C(C)C ... inactive
CCCCCCCCCCCCS ... 28.6 µM (active)

// recorded AC50 for CC1(C)[C@H](C=C(Cl)Cl)[C@H]1C(=O)OCc1cccc(Oc2ccccc2)c1 : inactive

// recorded AC50 for OCCN1CCOCC1 : inactive

// recorded AC50 for CC=CC(=O)C1=C(C)C=CCC1(C)C : inactive

* * *

Assay: CCTE_Shafer_MEA_acute_interburst_interval_mean: CCTE's Neural Acute Assay for Mean Interburst Interval, Shafer Lab (AID 2284016);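 also: percent change of mean interburst interval versus each well's own pre-dose baseline; curves fitted for decrease in interburst interval relative to DMSO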
The source made the active and inactive calls. Rule for the calls: active = hit-call score of the fitted dose curve at least 0.9, where 1 is the maximum; inactive = score below 0.9.
Your response should consist of one outcome taken from yes for active, no for inactive

Query string: Which outcome did this test record for the compound c1ccc(OCCOc2ccccc2)cc1 ?
Result string: no

Query string: Which outcome did this test record for the compound CC(C)CCCC(C)(C)O ?
Result string: no

Query string: Which outcome did this test record for the compound CCCCOCCOCCO ?
Result string: no

Query string: Which outcome did this test record for the compound CC(=O)c1ccc(C)cc1 ?
Result string: no

Query string: Which outcome did this test record for the compound CCCCN(CCO)CCO ?
Result string: yes

Query string: Which outcome did this test record for the compound N[C@@H](CCC(=O)O)C(=O)O ?
Result string: no

Query string: Which outcome did this test record for the compound CCCO[Si](OCCC)(OCCC)OCCC ?
Result string: yes

* * *

Read-out: Tissue plasminogen activator (tPA), PLAT (gene 5327)
Experiment: BSK_BE3C_tPA: BioMAP Diversity Plus: BE3C Assay for Tissue plasminogen activator (tPA) Biomarker Activity (AID 2283041);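 as to outcome: tPA level quantified by ELISA one day after compound addition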
Conditions: primary human bronchial epithelial cells; actives raise or lower the signal
The source made the active and inactive calls. How the source made its calls: active means hit-call score of the fitted dose curve at least 0.9, where 1 is the maximum; inactive means score below 0.9.
Your response should consist of one outcome taken from active, inactive

Query string: Which outcome did this test record for the compound C=C(F)C(=O)OC(C(F)(F)F)C(F)(F)F ?
Result string: inactive

Query string: Which outcome did this test record for the compound O=S1(=O)CC(Cl)(Cl)C(Cl)(Cl)C1 ?
Result string: active

Query string: Which outcome did this test record for the compound C=C1CC/C=C(\C)CC[C@@H]2[C@@H]1CC2(C)C ?
Result string: inactive

Query string: Which outcome did this test record for the compound COc1ccccc1NC(=O)CC(C)=O ?
Result string: inactive

Query string: Which outcome did this test record for the compound C=C(C)C(=O)OCCC(F)(F)C(F)(F)C(F)(F)C(F)(F)C(F)(F)C(F)(F)C(F)(F)C(F)(F)F ?
Result string: inactive

Query string: Which outcome did this test record for the compound COC(=O)c1ccc(C(=O)OC)cc1 ?
Result string: inactive

Query string: Which outcome did this test record for the compound O=S(=O)(O)C(F)(F)C(F)(F)OC(F)(F)C(F)(F)F ?
Result string: inactive

Query string: Which outcome did this test record for the compound CCn1cc(C(=O)O)c(=O)c2ccc(C)nc21 ?
Result string: inactive

Query string: Which outcome did this test record for the compound CCCCCCCCCCCCS ?
Result string: inactive

Query string: Which outcome did this test record for the compound C#C[C@]1(O)CC[C@H]2[C@@H]3CCc4cc(O)ccc4[C@H]3CC[C@@]21C ?
Result string: inactive

Query string: Which outcome did this test record for the compound CCOC(=O)CCCCCCCCC(=O)OCC ?
Result string: inactive

Query string: Which outcome did this test record for the compound CCCCCCCC1CCCC1=O (stereo not drawn) ?
Result string: active

Query string: Which outcome did this test record for the compound CC=CC(=O)C1=C(C)C=CCC1(C)C ?
Result string: inactive
